Target: proMMP9(67-444;ΔFnII) (SEQ ID NO:5) (Homo sapiens, UniProt P14780, DEL216-390)
Construct: start methionine (N)
Assay: ThermoFluor with proMMP9(67-444;ΔFnII)
Details: read-out: proMMP9(67-444; ΔFnII) (SEQ ID NO: 5) binding
Experimental: The ThermoFluor® (TF) assay is a 384-well plate-based binding assay that measures thermal stability of proteins (Biomol Screen 2001, 6, 429-40; Biochemistry 2005, 44, 5258-66). The experiments were carried out using instruments available from Johnson & Johnson Pharmaceutical Research & Development, LLC. TF dye used in all experiments was […] (1,8-ANS) (Invitrogen: A-47). […]
readout.type: Kd (nM)

CC(C)Oc1ccc(C(N)=O)cc1Nc1nc(-c2ccc(CN3CCC(F)CC3)cc2)cs1 [Example 54] :: 110

(a) CC(C)Oc1ccc(S(N)(=O)=O)cc1Nc1nc(-c2ccc(OCCN3CCC(F)CC3)cc2)cs1 [Example 34]
(b) CCN1CCC(c2ccc(-c3csc(Nc4cc(S(N)(=O)=O)ccc4OC(C)C)n3)cc2)CC1 [Example 26]
(c) CC(C)Oc1ccc(C(N)=O)cc1Nc1nc(-c2ccc(OCCN3CCC(F)(F)CC3)cc2)cs1 [Example 32]
(d) CC(C)Oc1ccc(C(N)=O)cc1Nc1nc(-c2ccc(CN3CCOCC3)cc2)cs1 [Example 58]
Returns the items ordered by Kd, from maximum to minimum. Provide your answer as the labels ordered per the instruction.
c, d, b, a

====

Target: proMMP9(20-445;ΔFnII) (SEQ ID NO:6) (Homo sapiens, UniProt P14780, DEL216-390)
Construct: start methionine (N)
Sequence (P14780 with tags, fused parts or gaps DEL216-390): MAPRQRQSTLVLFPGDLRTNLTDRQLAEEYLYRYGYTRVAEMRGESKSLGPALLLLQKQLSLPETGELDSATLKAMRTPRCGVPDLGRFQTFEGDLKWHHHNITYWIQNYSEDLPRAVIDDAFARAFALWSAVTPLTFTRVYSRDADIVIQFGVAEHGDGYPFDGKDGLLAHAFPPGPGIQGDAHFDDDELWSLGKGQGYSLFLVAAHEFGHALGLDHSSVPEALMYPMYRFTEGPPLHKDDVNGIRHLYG
Assay: ThermoFluor with proMMP9(20-445;ΔFnII)
Settings: read-out: proMMP9(20-445; ΔFnII) (SEQ ID NO: 6) binding
readout.type: Kd (nM)

NS(=O)(=O)c1ccc(OC(F)(F)F)c(Nc2nc(-c3ccc(OCCN4CCC(F)(F)CC4)cc3)cs2)c1 :: 1300

(P) CCOc1ccncc1Nc1nc(-c2ccc(OCCN3CCN(C)CC3)cc2)cs1
(Q) CCN1CCC(c2ccc(-c3csc(Nc4cc(S(N)(=O)=O)ccc4OC(C)C)n3)cc2)CC1
Of P and Q , which carries the smaller reported Kd figure? Returns: label corresponding to the selected item.
Q
(Q: 25 nM, P: 550 nM)

====

molecular target: proMMP9(67-444;ΔFnII) (SEQ ID NO:5) (Homo sapiens, UniProt P14780, DEL216-390); construct: start methionine (N); test: ThermoFluor with proMMP9(67-444;ΔFnII); conditions: read-out: proMMP9(67-444; ΔFnII) (SEQ ID NO: 5) binding
readout.type: Kd (nM)

Record excerpt, results attached:
COc1ccc(F)cc1Nc1nc(-c2ccc(OCCN3CCN(C4CC4)CC3)cc2)cs1 [Example 70] :: 2100
CC(C)Oc1ccc(C(N)=O)cc1Nc1nc(-c2ccc(C3=CCNCC3)cc2)cs1 [Example 16] :: 33

(a) CCOc1ccncc1Nc1nc(-c2ccc(C3=CCN(C(C)C)CC3)cc2)cs1 [Example 23]
(b) COc1ccc(F)cc1Nc1nc(-c2ccc(OCCN3CCC(F)CC3)cc2)cs1 [Example 68]
(c) CC(C)Oc1ccc(S(N)(=O)=O)cc1Nc1nc(-c2ccc(N3CCN(C)CC3)cc2)cs1 [Example 3]
Ascending by Kd, please. State the ranking by listing the labels in the requested order.
a, c, b

====

Target: proMMP13(1-268) (SEQ ID NO:7) (Homo sapiens, UniProt P45452)
Construct: 6×-histidine tag (C)
Test: ProMMP13/Plasmin P126 Activation Assay
Details: proMMP13(1-268) activated by plasmin
Protocol: ProMMP13/Plasmin P126 Activation Assay On the day of assay, proMMP13(1-268) (SEQ ID NO:7) purified from HEK293 cells and plasmin were diluted to 160 nM and 320 nM, respectively, in assay buffer. The reaction volume was 50 μL. […] The plate was sealed and incubated for 40 min at 37° C. […] Plasmin was not reactive towards P-126 substrate under these conditions.
readout.type: IC50 (nM)

Sample records with IC50:
CC(C)Oc1ccc(S(N)(=O)=O)cc1Nc1nc(-c2ccc(N3CCNCC3)c(Br)c2)cs1 :: 560
CC(C)Oc1ccc(C(N)=O)cc1Nc1nc(-c2ccc(OCCCN3CCOCC3)cc2)cs1 :: 340

(I) CCOc1ccncc1Nc1nc(-c2ccc(C3=CCN(CC)CC3)cc2)cs1
(II) CC(C)Oc1ccc(C(N)=O)cc1Nc1nc(-c2ccc(C3=CCN(C(C)C)CC3)cc2)cs1
(III) CCOc1ccncc1Nc1nc(-c2ccc(OCCN3CCN(C)CC3)cc2)cs1
Please give the order of these molecules when sorted by IC50, largest value leading. Lab note: final answer is the ordered label list.
III, I, II

(1) CC(C)Oc1ccc(S(N)(=O)=O)cc1Nc1nc(-c2ccc(N3CCN(C)CC3)cc2)cs1
(2) CC(C)Oc1ccc(S(N)(=O)=O)cc1Nc1nc(-c2ccc(CN3CCN(C(C)C)CC3)cc2)cs1
(3) CC(C)Oc1ccc(C(N)=O)cc1Nc1nc(-c2ccc(OCCN3CCN(C)CC3)cc2)cs1
(4) CC(C)Oc1ccc(C(N)=O)cc1Nc1nc(-c2ccc(N3CCN(C(C)C)CC3)cc2)cs1
Arrange items by their IC50 values in increasing order. Hello, could you send the labels back in the order asked? Thank you.
4, 3, 1, 2
(4: 120 nM, 3: 270 nM, 1: 390 nM, 2: 4000 nM)

(a) CC(C)Oc1ccc(C(N)=O)cc1Nc1nc(-c2ccc(OCCN3CCN(C4CC4)CC3)cc2)cs1
(b) CC(C)Oc1ccc(C(N)=O)cc1Nc1nc(-c2ccc(C3=CCN(C)CC3)cc2)cs1
Hi! Which is lower in terms of IC50, the first one a or the second one b ? # reply format: chosen label
b

====

molecular target: full-length proMMP9(1-707) (SEQ ID NO:1) (Homo sapiens, UniProt P14780, R574P); construct: E. coli (MMP3); assay: proMMP9/MMP3 P126 Activation Assay; conditions: proMMP9(1-707) from HEK293 cells activated by catalytic MMP3
pIC50: −log10 of the molar value.
readout.type: pIC50

CC(C)Oc1ccc(C(N)=O)cc1Nc1nc(-c2ccc(N3CCN(C(C)C)CC3)cc2)cs1 :: 7.30
CC(C)Oc1ccc(S(N)(=O)=O)cc1Nc1nc(-c2ccc(N3CCN(C(C)C)CC3)cc2)cs1 :: 6.89
CC(C)Oc1ccc(C(N)=O)cc1Nc1nc(-c2ccc(OCCN3CCN(C)CC3)cc2)cs1 :: 7.57

(1) COc1ccncc1Nc1nc(-c2ccc(OCCN3CCC(F)CC3)cc2)cs1
(2) CC(C)Oc1ccc(C(N)=O)cc1Nc1nc(-c2ccc(CN3CCN(C(C)C)CC3)cc2)cs1
(3) CC(C)Oc1ccc(C(N)=O)cc1Nc1nc(-c2ccc(C3=CCNCC3)cc2)cs1
(4) CC(C)Oc1ccc(C(N)=O)cc1Nc1nc(-c2ccc(C3=CCN(C(C)C)CC3)cc2)cs1
Order each entry by recorded pIC50, climbing from the minimum. List the labels, following the order given in the request.
1, 2, 3, 4

====

Target: proMMP9(20-445;ΔFnII) (SEQ ID NO:6) (Homo sapiens, UniProt P14780, DEL216-390)
Construct: start methionine (N)
Sequence (P14780 with tags, fused parts or gaps DEL216-390): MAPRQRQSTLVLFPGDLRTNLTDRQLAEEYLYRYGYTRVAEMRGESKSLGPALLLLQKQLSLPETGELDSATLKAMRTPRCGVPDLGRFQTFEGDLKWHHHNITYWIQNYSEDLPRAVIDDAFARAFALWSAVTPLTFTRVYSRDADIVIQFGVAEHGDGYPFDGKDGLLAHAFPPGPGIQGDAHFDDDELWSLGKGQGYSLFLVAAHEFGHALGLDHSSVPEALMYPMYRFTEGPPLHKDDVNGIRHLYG
Assay: ThermoFluor with proMMP9(20-445;ΔFnII)
Details: read-out: proMMP9(20-445; ΔFnII) (SEQ ID NO: 6) binding
Method: The ThermoFluor® (TF) assay is a 384-well plate-based binding assay that measures thermal stability of proteins (Biomol Screen 2001, 6, 429-40; Biochemistry 2005, 44, 5258-66). The experiments were carried out using instruments available from Johnson & Johnson Pharmaceutical Research & Development, LLC. TF dye used in all experiments was […] (1,8-ANS) (Invitrogen: A-47). […]
readout.type: Kd (µM)

Example entries begin here.
CC(C)Oc1ccc(S(N)(=O)=O)cc1Nc1nc(-c2ccc(OCCN3CCOCC3)cc2)cs1 [Example 28] :: 0.075
NC(=O)c1ccc(OC(F)(F)F)c(Nc2nc(-c3ccc(OCCN4CCC(F)CC4)cc3)cs2)c1 [Example 37] :: 0.074
CC(C)Oc1ccc(C(N)=O)cc1Nc1nc(-c2ccc(CN3CCC(F)CC3)cc2)cs1 [Example 54] :: 0.031
CC(C)Oc1ccc(C(N)=O)cc1Nc1nc(-c2ccc(CN3CC[C@@H](F)C3)cc2)cs1 [Example 52] :: 0.027
CCOc1ccncc1Nc1nc(-c2ccc(C3=CCN(C)CC3)cc2)cs1 [Example 21] :: 0.4

(I) CC(C)Oc1ccc(C(N)=O)cc1Nc1nc(-c2ccc(N3CCN(Cc4ccccc4)CC3)cc2)cs1 [Example 11]
(II) COc1ccc(F)cc1Nc1nc(-c2ccc(CN3CC[C@@H](F)C3)cc2)cs1 [Example 61]
(III) CC(C)Oc1ccc(C(N)=O)cc1Nc1nc(-c2ccc(C3=CCN(C)CC3)cc2)cs1 [Example 17]
(IV) CC(C)Oc1ccc(S(N)(=O)=O)cc1Nc1nc(-c2ccc(OCCCN3CCOCC3)cc2)cs1 [Example 47]
Order by Kd, ascending. // rank by listing labels in the order requested
III, IV, I, II

(1) CCOc1ccncc1Nc1nc(-c2ccc(C3=CCN(CC)CC3)cc2)cs1 [Example 22]
(2) COc1ccc(F)cc1Nc1nc(-c2ccc(CN3CCN(C(C)C)CC3)cc2)cs1 [Example 63]
Hi there, can you help? I need to know whether 1 or 2 has lower measured Kd. # reply format: chosen label
1

(I) CC(C)Oc1ccc(S(N)(=O)=O)cc1Nc1nc(-c2ccc(N3CCNCC3)cc2)cs1 [Example 1]
(II) CC(C)Oc1ccc(C(N)=O)cc1Nc1nc(-c2ccc(N3CCN(C)CC3)cc2)cs1 [Example 8]
Among I and II , whose measured Kd is the smaller figure? Answer by quoting the chosen item's label.
I
